Field: Ki. System: Fatty acid-binding protein, adipocyte (Homo sapiens, UniProt P15090). Provenance: assorted publications.
Sequence (P15090 whole entry): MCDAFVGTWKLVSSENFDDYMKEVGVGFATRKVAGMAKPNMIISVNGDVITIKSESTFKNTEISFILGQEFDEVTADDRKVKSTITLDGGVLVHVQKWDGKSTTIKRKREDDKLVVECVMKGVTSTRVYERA
Measured Ki determines class: band A = under 600 nM, band B = from 600 nM up to 2000 nM, band C = 2000 nM and over

compound=COc1ccc(S(=O)(=O)Nc2cc(F)cc(C(=O)O)c2)c2ccccc12 label="band B"
compound="CCC(Oc1cccc(-c2ccccc2-c2cc(-c3cccs3)n(-c3ccc(Cl)cc3)n2)c1)C(=O)O (stereo unspecified)" label="band A"
compound=O=C(O)CCCNC(=O)c1cc(Cl)cc(Cl)c1 label="band C"
compound=COc1ccc(S(=O)(=O)Nc2cc(C(=O)O)c(F)cc2F)c2ccccc12 label="band A"
compound=COc1ccc(S(=O)(=O)Nc2cccc(C(=O)O)c2)c2ccccc12 label="band A"
compound=O=C(O)COc1cccc(-c2ccccc2-c2cc(-c3ccco3)n(-c3ccc(Cl)cc3)n2)c1 label="band A"
compound=O=C(O)CCCCNS(=O)(=O)c1ccc(Br)c2ccccc12 label="band B"
compound=O=C(O)CCCCCNS(=O)(=O)c1cc(Cl)cc(Cl)c1 label="band C"
compound=COc1ccc(S(=O)(=O)Nc2cc(C(=O)O)ccc2Cl)c2ccccc12 label="band B"
compound=COc1ccc(S(=O)(=O)Nc2cccc(C(=O)O)c2F)c2ccccc12 label="band C"
compound="O=C(O)C1CCc2ccc(-c3cccc(Cl)c3OCc3ccccc3)cc21 (stereo unspecified)" label="band B"
compound="Cc1cc2c3c(c1)C1C=CCC1C(C(=O)O)N3CC1CC=CC21 (stereo unspecified)" label="band A"
compound="O=C(O)C1CCc2ccc(-c3cccc(Cl)c3-c3ccc4c(c3)CCO4)cc21 (stereo unspecified)" label="band A"
compound=COc1ccc(S(=O)(=O)Nc2ccc(F)c(C(=O)O)c2F)c2ccccc12 label="band C"
compound=COc1ccc(S(=O)(=O)Nc2cc(C(=O)O)ccc2C)c2ccccc12 label="band C"
compound=CCCOc1cc(S(=O)(=O)Nc2ccc(C(=O)O)cc2)ccc1Cl label="band C"
compound=O=C(O)c1cc(-c2cccc(Cl)c2-c2ccc3nonc3c2)ccc1C(F)(F)F label="band B"
compound="O=C(O)C1CCc2ccc(-c3cccc(Cl)c3-c3ccc4occc4c3)cc21 (stereo unspecified)" label="band B"
compound=O=C(O)CCc1cccc(-c2cccc(Cl)c2-c2ccc3c(c2)CCO3)c1 label="band B"
compound=O=C(O)c1cc(O)cc(-c2cccc(Cl)c2-c2ccc3c(c2)CCO3)c1 label="band A"
